These measurements were taken from ChEMBL document CHEMBL4270609.

STUDY_SYSTEM: Tartrate-resistant acid phosphatase type 5 (Sus scrofa) (UniProt P09889)
Sequence (P09889 whole entry): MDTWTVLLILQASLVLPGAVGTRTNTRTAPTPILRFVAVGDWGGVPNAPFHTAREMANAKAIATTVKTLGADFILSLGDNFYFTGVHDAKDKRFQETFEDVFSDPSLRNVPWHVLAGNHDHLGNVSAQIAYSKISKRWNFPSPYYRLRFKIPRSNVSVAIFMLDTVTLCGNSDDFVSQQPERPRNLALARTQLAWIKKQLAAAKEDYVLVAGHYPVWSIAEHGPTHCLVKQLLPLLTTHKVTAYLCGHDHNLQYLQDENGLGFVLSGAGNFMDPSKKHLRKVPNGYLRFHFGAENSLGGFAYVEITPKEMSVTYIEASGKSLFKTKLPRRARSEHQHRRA
PROTOCOL_TEXT: Competitive inhibition of pig purple acid phosphatase Fe(3)Fe(2) state assessed as enzyme-inhibitor complex using pNPP as substrate by UV/Vis spectrophotometric method
PARAMETER_MEASURED: Kic (µM)

| INPUT_SMILES | MEASUREMENT |
| --- | --- |
| O=C(O)c1csc(-c2cccc3ccccc23)n1 | 33 |
| O=C(O)c1csc(-c2ccccc2Cl)n1 | 630 |
| Cc1ccc(-c2nc(C(=O)O)cs2)cc1 | 42 |
| COc1ccc(-c2nc(C(=O)O)cs2)cc1 | 120 |

1: O=C(O)c1csc(-c2ccc(Cl)cc2)n1
2: O=C(O)c1csc(-c2ccccc2)n1
Which value of Kic is numerically greater: that of 1 or that of 2 ? API: response body contains the label of the selected item.
2
(2: 190 µM, 1: 49 µM)

====

STUDY_SYSTEM: Fe(3+)-Zn(2+) purple acid phosphatase (Phaseolus vulgaris) (UniProt P80366)
Sequence (whole entry): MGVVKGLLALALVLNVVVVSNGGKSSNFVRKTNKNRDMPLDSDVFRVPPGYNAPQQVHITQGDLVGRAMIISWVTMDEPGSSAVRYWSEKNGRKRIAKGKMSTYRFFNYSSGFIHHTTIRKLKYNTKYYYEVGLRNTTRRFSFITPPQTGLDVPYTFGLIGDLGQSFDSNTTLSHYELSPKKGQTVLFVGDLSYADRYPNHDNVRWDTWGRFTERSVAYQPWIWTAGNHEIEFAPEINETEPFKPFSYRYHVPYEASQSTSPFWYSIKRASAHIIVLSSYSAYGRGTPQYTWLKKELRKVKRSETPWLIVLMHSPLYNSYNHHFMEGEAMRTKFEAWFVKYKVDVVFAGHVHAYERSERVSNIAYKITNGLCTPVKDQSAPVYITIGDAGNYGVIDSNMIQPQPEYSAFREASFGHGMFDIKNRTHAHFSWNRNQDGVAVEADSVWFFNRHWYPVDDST
PROTOCOL_TEXT: Competitive inhibition of red kidney bean purple acid phosphatase Fe(3)Fe(2) state assessed as enzyme-inhibitor complex using pNPP as substrate by UV/Vis spectrophotometric method
PARAMETER_MEASURED: Kic (µM)

| INPUT_SMILES | STUDY_SYSTEM | Kic (µM) |
| --- | --- | --- |
| COc1ccc(-c2nc(C(=O)O)cs2)cc1 | Fe(3+)-Zn(2+) purple acid phosphatase (Phaseolus vulgaris) (UniProt P80366) | 400 |
| O=C(O)c1csc(-c2ccccc2Cl)n1 | Fe(3+)-Zn(2+) purple acid phosphatase (Phaseolus vulgaris) (UniProt P80366) | 920 |
| O=C(O)c1csc(-c2ccc(Cl)cc2)n1 | Fe(3+)-Zn(2+) purple acid phosphatase (Phaseolus vulgaris) (UniProt P80366) | 530 |

P: O=C(O)c1csc(-c2cccc3ccccc23)n1
Q: Cc1ccc(-c2nc(C(=O)O)cs2)cc1
Which value of Kic is numerically greater: that of P or that of Q ? API: response body contains the label of the selected item.
Q
(Q: 340 µM, P: 185 µM)
